Format: physicochemical
Conditions: 40° C. and 75% RH, day 28
Protocol: Identity, Assay, and Purity by HPLC Testing was performed on a calibrated and validated Agilent 1200 Rapid Resolution High Performance Liquid Chromatography (HPLC) system designated LC-0430-AD or LC-418-1D. The system comprises a binary SL pump, degasser, high performance autosampler SL with a fraction collector, thermostated column compartment with a 2 valve column switcher, and a DAD SL detector. […]
Where a name gives a salt, the structure may show the parent alone.
PROPERTY: HPLC Purity
Phrase the answer as number then unit, nothing more needed.

COc1cccc2[nH]c3c4c(c5c(c3c12)C(=O)N(CN1CCN(C)CC1)C5=O)CCC4 [Glycolate Salt Hydrate, Form A1]; 99.5%
COc1cccc2[nH]c3c4c(c5c(c3c12)C(=O)N(CN1CCN(C)CC1)C5=O)CCC4.O=C1CC[C@@H](C(=O)O)N1; 97.2%
COc1cccc2[nH]c3c4c(c5c(c3c12)C(=O)N(CN1CCN(C)CC1)C5=O)CCC4 [Acetate Salt, Form A1.5]; 99.6%

Continue with the next compound.
**Q:** Reported HPLC Purity, compound COc1cccc2[nH]c3c4c(c5c(c3c12)C(=O)N(CN1CCN(C)CC1)C5=O)CCC4 [L-Malate Salt, Form A1] : ____
**A:** 98.4%

----------
Listed compounds paired with reported Estimated Water Solubility
Test: Estimation of water solubility
Type: physicochemical
Settings: visual inspection, 10 mg sample
Description: Estimation of Water Solubility: Ten mg portions of the salt forms to be studied were weighed into a standard 1.5 mL HPLC vial (32×11.6 mm). […] An estimation of solubility was based on the volume of water necessary to dissolve the known weight of sample.

Here's what some known entries look like.
COc1cccc2[nH]c3c4c(c5c(c3c12)C(=O)N(CN1CCN(C)CC1)C5=O)CCC4 [Sample 13-7]; 50 to 100 mg/mL
COc1cccc2[nH]c3c4c(c5c(c3c12)C(=O)N(CN1CCN(C)CC1)C5=O)CCC4 [Sample 13-9]; <10 mg/mL
COc1cccc2[nH]c3c4c(c5c(c3c12)C(=O)N(CN1CCN(C)CC1)C5=O)CCC4 [Sample 39-3]; >100 mg/mL

**Q:** Reported Estimated Water Solubility, compound COc1cccc2[nH]c3c4c(c5c(c3c12)C(=O)N(CN1CCN(C)CC1)C5=O)CCC4 [Sample 30-2] : ____
**A:** >100 mg/mL

**Q:** Follow-up item: COc1cccc2[nH]c3c4c(c5c(c3c12)C(=O)N(CN1CCN(C)CC1)C5=O)CCC4 [Sample 31-1]
**A:** ~25 mg/mL

**Q:** Follow-up item: COc1cccc2[nH]c3c4c(c5c(c3c12)C(=O)N(CN1CCN(C)CC1)C5=O)CCC4 [Sample 30-3]
**A:** >100 mg/mL

**Q:** Follow-up item: COc1cccc2[nH]c3c4c(c5c(c3c12)C(=O)N(CN1CCN(C)CC1)C5=O)CCC4 [Sample 31-5]
**A:** ~25 mg/mL

**Q:** Follow-up item: COc1cccc2[nH]c3c4c(c5c(c3c12)C(=O)N(CN1CCN(C)CC1)C5=O)CCC4 [39-2(2)]
**A:** >100 mg/mL

**Q:** Follow-up item: COc1cccc2[nH]c3c4c(c5c(c3c12)C(=O)N(CN1CCN(C)CC1)C5=O)CCC4 [39-3(2)]
**A:** >100 mg/mL

**Q:** Follow-up item: COc1cccc2[nH]c3c4c(c5c(c3c12)C(=O)N(CN1CCN(C)CC1)C5=O)CCC4 [Sample 30-1]
**A:** ~20 mg/mL

**Q:** Follow-up item: COc1cccc2[nH]c3c4c(c5c(c3c12)C(=O)N(CN1CCN(C)CC1)C5=O)CCC4 [Sample 31-3]
**A:** >100 mg/mL

**Q:** Follow-up item: COc1cccc2[nH]c3c4c(c5c(c3c12)C(=O)N(CN1CCN(C)CC1)C5=O)CCC4 [Sample 13-5]
**A:** <10 mg/mL

**Q:** Follow-up item: COc1cccc2[nH]c3c4c(c5c(c3c12)C(=O)N(CN1CCN(C)CC1)C5=O)CCC4 [Sample 31-4]
**A:** >100 mg/mL

**Q:** Follow-up item: COc1cccc2[nH]c3c4c(c5c(c3c12)C(=O)N(CN1CCN(C)CC1)C5=O)CCC4 [Sample 13-10]
**A:** 10 to 20 mg/mL

**Q:** Follow-up item: COc1cccc2[nH]c3c4c(c5c(c3c12)C(=O)N(CN1CCN(C)CC1)C5=O)CCC4 [39-5(2)]
**A:** >100 mg/mL

**Q:** Follow-up item: COc1cccc2[nH]c3c4c(c5c(c3c12)C(=O)N(CN1CCN(C)CC1)C5=O)CCC4 [Sample 30-5]
**A:** ~25 mg/mL

**Q:** Follow-up item: COc1cccc2[nH]c3c4c(c5c(c3c12)C(=O)N(CN1CCN(C)CC1)C5=O)CCC4 [Sample 39-5]
**A:** >100 mg/mL

**Q:** Follow-up item: COc1cccc2[nH]c3c4c(c5c(c3c12)C(=O)N(CN1CCN(C)CC1)C5=O)CCC4 [Sample 39-2]
**A:** <10 mg/mL

**Q:** Follow-up item: COc1cccc2[nH]c3c4c(c5c(c3c12)C(=O)N(CN1CCN(C)CC1)C5=O)CCC4 [Sample 39-1]
**A:** ~50 mg/mL
